# Test system: Mycolicibacterium smegmatis
# Assay Text: Antitubercular activity against Mycobacterium smegmatis by checkerboard assay
# Type: functional

Molecule	MIC99
CN(C)CCCN1c2ccc(O)cc2Sc2ccc(Cl)cc21 [7-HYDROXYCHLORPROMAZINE]	62.2 µM
NC[C@H]1O[C@H](O[C@H]2[C@H](O)[C@@H](O[C@H]3O[C@H](CO)[C@@H](O)[C@H](N)[C@H]3O)[C@H](N)C[C@@H]2N)[C@H](O)[C@@H](O)[C@@H]1O	7.16 µM
CO[C@H]1/C=C/O[C@@]2(C)Oc3c(C)c(O)c4c(O)c(c(/C=N/N5CCN(C)CC5)c(O)c4c3C2=O)NC(=O)/C(C)=C\C=C\[C@H](C)[C@H](O)[C@@H](C)[C@@H](O)[C@@H](C)[C@H](OC(C)=O)[C@@H]1C	2.53 µM
CNCCCN1c2ccccc2Sc2ccc(Cl)cc21	137 µM

###

# Tested on: Mycolicibacterium smegmatis
# Assay Text: Antitubercular activity against Mycobacterium smegmatis by checkerboard assay in presence of rifampicin
# Type: functional
MIC99 overview

Molecule	Measured Target	MIC99 [µM]
CN(C)CCCN1c2ccccc2Sc2ccc(Cl)cc21	Mycolicibacterium smegmatis	58.6
C[N+](C)([O-])CCCN1c2ccccc2Sc2ccc(Cl)cc21	Mycolicibacterium smegmatis	498
CN(C)CCCN1c2ccc(O)cc2Sc2ccc(Cl)cc21 [7-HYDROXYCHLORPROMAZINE]	Mycolicibacterium smegmatis	31.1
CNCCCN1c2ccccc2Sc2ccc(Cl)cc21	Mycolicibacterium smegmatis	34.2

###

MIC99 overview
# System: Mycolicibacterium smegmatis
# Assay Text: Antitubercular activity against Mycobacterium smegmatis by checkerboard assay in presence of nor-chlorpromazine
# Type: functional
# Assay Setup: Mycolicibacterium smegmatis

Compound	Measured Target	MIC99
CO[C@H]1/C=C/O[C@@]2(C)Oc3c(C)c(O)c4c(O)c(c(/C=N/N5CCN(C)CC5)c(O)c4c3C2=O)NC(=O)/C(C)=C\C=C\[C@H](C)[C@H](O)[C@@H](C)[C@@H](O)[C@@H](C)[C@H](OC(C)=O)[C@@H]1C [RIFAMPIN]	Mycolicibacterium smegmatis	0.32 µM
NC[C@H]1O[C@H](O[C@H]2[C@H](O)[C@@H](O[C@H]3O[C@H](CO)[C@@H](O)[C@H](N)[C@H]3O)[C@H](N)C[C@@H]2N)[C@H](O)[C@@H](O)[C@@H]1O [KANAMYCIN]	Mycolicibacterium smegmatis	0.89 µM
CN[C@@H]1[C@H](O)[C@H](NC)[C@H]2O[C@@]3(O)C(=O)C[C@@H](C)O[C@H]3O[C@@H]2[C@H]1O [SPECTINOMYCIN]	Mycolicibacterium smegmatis	5.25 µM
CO[C@H]1/C=C/O[C@@]2(C)Oc3c(C)c(O)c4c(O)c(c(/C=N/N5CCN(C)CC5)c(O)c4c3C2=O)NC(=O)/C(C)=C\C=C\[C@H](C)[C@H](O)[C@@H](C)[C@@H](O)[C@@H](C)[C@H](O)[C@@H]1C [DESACETYLRIFAMPIN]	Mycolicibacterium smegmatis	0.67 µM

###

# Test system: Mycolicibacterium smegmatis
# Assay Text: Antitubercular activity against Mycobacterium smegmatis by checkerboard assay
# Assay type: functional

Compound	Measured Target	MIC99
CNCCCN1c2ccccc2[S+]([O-])c2ccc(Cl)cc21 (stereo not drawn)	Mycolicibacterium smegmatis	> 2080 µM
CN(C)CCCN1c2ccccc2[S+]([O-])c2ccc(Cl)cc21 (stereo not drawn) [CHLOROPROMAZINE SULFOXIDE]	Mycolicibacterium smegmatis	> 1990 µM
C[N+](C)([O-])CCCN1c2ccccc2[S+]([O-])c2ccc(Cl)cc21 (stereo not drawn)	Mycolicibacterium smegmatis	> 1900 µM
